assay: Acute Toxicity Study (MTD) by gavage in healthy mice; type: in vivo; settings: mouse, in vivo, po; mice, 600 mg/kg by gavage, 5 consecutive days; read-out: LD50
test-readout: LD50 at 5 days

Ask: # LD50 at 5 days lookup, item CC(C)(C)OC(=O)Nc1cc(COc2ccc3c(c2)OC[C@H]3CC(=O)O)c2c(c1)OCO2 [IIb-43]
Reply: > 600 mg/kg

====

biological target: UniProt Q12809
Sequence (Q12809 whole entry): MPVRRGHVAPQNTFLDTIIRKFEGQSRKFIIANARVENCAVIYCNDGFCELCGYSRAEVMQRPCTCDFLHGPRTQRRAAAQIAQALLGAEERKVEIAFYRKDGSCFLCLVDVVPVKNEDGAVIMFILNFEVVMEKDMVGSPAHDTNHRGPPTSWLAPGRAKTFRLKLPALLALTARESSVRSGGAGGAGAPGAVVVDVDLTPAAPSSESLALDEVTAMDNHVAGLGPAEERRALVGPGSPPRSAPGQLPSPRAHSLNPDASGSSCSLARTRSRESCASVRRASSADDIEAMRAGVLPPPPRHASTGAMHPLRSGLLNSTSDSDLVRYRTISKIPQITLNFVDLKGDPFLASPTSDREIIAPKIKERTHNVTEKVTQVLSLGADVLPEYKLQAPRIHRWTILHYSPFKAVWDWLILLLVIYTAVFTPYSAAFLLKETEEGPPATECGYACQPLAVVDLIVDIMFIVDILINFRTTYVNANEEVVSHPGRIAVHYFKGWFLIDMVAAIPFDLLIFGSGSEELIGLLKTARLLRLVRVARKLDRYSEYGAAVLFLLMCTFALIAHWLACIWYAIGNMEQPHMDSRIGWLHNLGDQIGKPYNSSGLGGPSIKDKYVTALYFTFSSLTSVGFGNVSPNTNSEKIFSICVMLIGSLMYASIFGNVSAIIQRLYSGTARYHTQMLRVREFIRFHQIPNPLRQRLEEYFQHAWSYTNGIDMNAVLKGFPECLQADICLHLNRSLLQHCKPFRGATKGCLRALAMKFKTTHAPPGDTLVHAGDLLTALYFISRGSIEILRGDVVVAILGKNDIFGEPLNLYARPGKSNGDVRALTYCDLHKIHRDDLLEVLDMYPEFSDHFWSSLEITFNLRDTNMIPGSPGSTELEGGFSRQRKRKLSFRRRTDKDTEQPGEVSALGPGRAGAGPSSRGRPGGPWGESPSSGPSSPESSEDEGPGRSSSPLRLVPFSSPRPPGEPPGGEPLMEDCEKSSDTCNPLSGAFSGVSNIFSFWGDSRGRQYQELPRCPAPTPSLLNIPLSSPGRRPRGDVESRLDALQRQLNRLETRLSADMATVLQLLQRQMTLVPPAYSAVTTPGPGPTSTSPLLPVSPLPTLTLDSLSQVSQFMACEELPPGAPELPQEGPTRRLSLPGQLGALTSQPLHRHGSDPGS
pIC50: −log10 of the molar value.
test-readout: pIC50

Some solved cases for reference:
O=C(O)C[C@@H]1COc2cc(OCc3cccc4c3OC(F)(F)O4)ccc21	< 4.52
O=C(O)C[C@@H]1COc2cc(OCc3cc(Cl)cc4c3OCO4)ccc21	< 4.52

// next item, pIC50 requested
Ask: Which pIC50 is listed for "CC(C)(C)OC(=O)Nc1cc(COc2ccc3c(c2)OC[C@H]3CC(=O)O)c2c(c1)OCO2" ?
Reply: < 4.52

====

biological target: GPR40 (Homo sapiens); construct: expressed in transfected cells; host or cells: CHO-K1; assay: GPR40 agonist activity, FLIPR calcium assay in CHO-K1/GPR40 cells; format: cell-based; settings: GPR40 agonist activity range (EC50), CHO-K1/GPR40 cells; read-out: GPR40 activity
Sequence (O14842 whole entry): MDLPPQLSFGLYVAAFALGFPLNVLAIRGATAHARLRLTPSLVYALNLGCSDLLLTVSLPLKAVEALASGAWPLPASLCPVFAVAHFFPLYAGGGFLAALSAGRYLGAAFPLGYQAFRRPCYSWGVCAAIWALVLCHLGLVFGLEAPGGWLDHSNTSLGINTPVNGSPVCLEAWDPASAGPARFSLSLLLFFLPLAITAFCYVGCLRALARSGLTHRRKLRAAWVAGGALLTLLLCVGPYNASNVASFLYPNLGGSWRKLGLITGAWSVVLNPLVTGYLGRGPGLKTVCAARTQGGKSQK
test-readout: EC50

Some molecules with recorded EC50:
O=C(O)CC1COc2cc(OCc3c(Br)ccc4c3OCCO4)ccc21 (centres unmarked) [IIb-08]	> 100 nM
O=C(O)CC1COc2cc(OCc3ccc4c(c3)OCO4)ccc21 (centres unmarked) [IIb-04]	10 to 100 nM
CC(C)(C)OC(=O)Nc1cc(COc2ccc3c(c2)OC[C@H]3CC(=O)O)c2c(c1)OC(F)(F)O2 [IIb-46]	< 10 nM
O=C(O)CC1COc2cc(OCc3cccc4c3OC(F)(F)O4)ccc21 (centres unmarked) [IIb-17]	10 to 100 nM

Ask: Query EC50 on GPR40 (Homo sapiens) for COc1cc(COc2ccc3c(c2)OC[C@H]3CC(=O)O)c2c(c1)OCO2 [IIb-45]
Reply: > 100 nM

====

# LD50 at 5 days per record follows
test: Acute Toxicity Study (MTD) by gavage in healthy mice; type: in vivo; details: mouse, in vivo, po, 600 mg/kg

O=C(O)C[C@@H]1COc2cc(OCc3cccc4c3OC(F)(F)O4)ccc21	> 600 mg/kg

Please turn your attention to the following entry.
Ask: For "O=C(O)C[C@@H]1COc2cc(OCc3cc(Cl)cc4c3OCO4)ccc21" , what is its reported LD50 at 5 days?
Reply: > 600 mg/kg

====

Recorded IC50 for the following compounds
target: BSEP bile salt transporter (Homo sapiens); experiment: BSEP (Bile Salt Export Pump) assay, taurocholic acid uptake by BSEP vesicles, LC/MS/MS; format: in vitro ADME; conditions: inhibition of TCA uptake by BSEP vesicles; read-out: Potential inhibitory side effects BSEP (IC50)
Sequence (O95342 whole entry): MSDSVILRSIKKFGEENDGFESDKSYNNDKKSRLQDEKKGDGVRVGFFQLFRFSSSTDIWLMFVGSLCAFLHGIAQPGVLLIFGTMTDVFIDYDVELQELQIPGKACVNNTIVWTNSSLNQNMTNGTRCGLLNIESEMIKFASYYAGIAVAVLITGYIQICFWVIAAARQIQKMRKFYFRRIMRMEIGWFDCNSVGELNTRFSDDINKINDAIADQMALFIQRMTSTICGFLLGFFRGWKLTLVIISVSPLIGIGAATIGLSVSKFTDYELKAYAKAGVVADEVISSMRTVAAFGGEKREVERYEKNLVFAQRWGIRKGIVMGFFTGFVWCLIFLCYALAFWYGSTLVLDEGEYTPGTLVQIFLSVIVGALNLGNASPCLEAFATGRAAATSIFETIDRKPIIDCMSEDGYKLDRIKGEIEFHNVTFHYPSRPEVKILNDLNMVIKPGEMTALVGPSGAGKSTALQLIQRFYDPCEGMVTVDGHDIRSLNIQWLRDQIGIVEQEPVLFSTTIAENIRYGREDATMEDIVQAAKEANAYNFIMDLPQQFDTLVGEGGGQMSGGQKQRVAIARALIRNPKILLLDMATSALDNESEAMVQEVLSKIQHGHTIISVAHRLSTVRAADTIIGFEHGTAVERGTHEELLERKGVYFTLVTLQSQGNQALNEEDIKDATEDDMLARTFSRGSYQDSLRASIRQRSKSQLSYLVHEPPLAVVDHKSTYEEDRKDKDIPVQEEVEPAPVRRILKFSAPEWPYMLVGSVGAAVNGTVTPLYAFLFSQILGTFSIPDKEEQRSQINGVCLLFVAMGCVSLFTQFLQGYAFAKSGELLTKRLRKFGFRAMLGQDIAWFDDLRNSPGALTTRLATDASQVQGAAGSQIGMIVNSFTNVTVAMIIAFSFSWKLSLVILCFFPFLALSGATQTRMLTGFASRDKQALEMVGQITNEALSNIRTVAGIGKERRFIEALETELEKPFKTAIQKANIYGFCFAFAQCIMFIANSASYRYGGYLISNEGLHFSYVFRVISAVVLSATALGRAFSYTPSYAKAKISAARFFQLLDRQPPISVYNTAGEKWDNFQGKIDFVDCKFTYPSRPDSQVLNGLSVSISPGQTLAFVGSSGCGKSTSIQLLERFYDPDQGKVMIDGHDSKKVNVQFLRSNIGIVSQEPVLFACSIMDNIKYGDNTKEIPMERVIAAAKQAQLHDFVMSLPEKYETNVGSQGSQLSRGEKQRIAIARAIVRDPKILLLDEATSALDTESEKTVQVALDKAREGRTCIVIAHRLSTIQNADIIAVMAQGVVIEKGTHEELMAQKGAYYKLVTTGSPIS
Numbers only here, please. The scale is µM.

Cc1cc(OCCCS(C)(=O)=O)cc(C)c1-c1cccc(COc2ccc3c(c2)OC[C@H]3CC(=O)O)c1 [Ref-1]	7.1
CC(C)(C)OC(=O)Nc1cc(COc2ccc3c(c2)OC[C@H]3CC(=O)O)c2c(c1)OCO2 [IIb-43]	66.8
O=C(O)C[C@@H]1COc2cc(OCc3cccc4c3OC(F)(F)O4)ccc21 [IIb-18]	162

Now let's try a different one.
Ask: What IC50 value was documented for this compound, O=C(O)C[C@@H]1COc2cc(OCc3cc(Cl)cc4c3OCO4)ccc21 [IIb-25] ?
Reply: 57.7

The reported measurements were obtained from patent US20230339919A1.
